- target or test system: T1, TPR domain of SGTA (small, glutamine-rich, tetratricopeptide repeat protein alpha), residues 84-211 (human, UniProt O43765 84-211)
- T1 construct: human SGTA, central TPR domain, residues 84-211; 15N-labelled (M9 medium) where it was the observed species in NMR; unlabelled otherwise; not shown: thioredoxin A (TxA), N-terminal, cleaved; His6, N-terminal, cleaved
- T1 sequence (O43765 84-211): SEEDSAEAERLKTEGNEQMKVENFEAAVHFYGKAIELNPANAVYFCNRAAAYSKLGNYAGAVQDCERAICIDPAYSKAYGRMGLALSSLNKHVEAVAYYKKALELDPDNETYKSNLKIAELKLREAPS
- protocol description: ITC; SGTA_TPR at 1 mM injected into Rpn13 or DMSLD peptide at 50 μM in the cell; 25 °C, 10 mM potassium phosphate pH 6.0, 100 mM NaCl, 250 μM TCEP; one site assumed (n = 1)
- condition set: both partners purified
quantity: pKd
Answers are plain numbers, as −log10 of the molar value.

Recorded pKd for DMSLD (also called DMSLD peptide; DMSLD pentapeptide; source: synthetic peptide, bought: Alta BioScience (Birmingham, UK)) [Rpn13 extreme C-terminal pentapeptide (DMSLD; residues 403-407)] , please? 4.14

Ref: paper PMC5101480
